# Tested Target: PPARγ (peroxisome proliferator-activated receptor-gamma) (Homo sapiens, UniProt P37231)
# Construct: gene PPARG; human PPARγ protein with a His tag (HY-P7999, MCE)
# Sequence (P37231 whole entry): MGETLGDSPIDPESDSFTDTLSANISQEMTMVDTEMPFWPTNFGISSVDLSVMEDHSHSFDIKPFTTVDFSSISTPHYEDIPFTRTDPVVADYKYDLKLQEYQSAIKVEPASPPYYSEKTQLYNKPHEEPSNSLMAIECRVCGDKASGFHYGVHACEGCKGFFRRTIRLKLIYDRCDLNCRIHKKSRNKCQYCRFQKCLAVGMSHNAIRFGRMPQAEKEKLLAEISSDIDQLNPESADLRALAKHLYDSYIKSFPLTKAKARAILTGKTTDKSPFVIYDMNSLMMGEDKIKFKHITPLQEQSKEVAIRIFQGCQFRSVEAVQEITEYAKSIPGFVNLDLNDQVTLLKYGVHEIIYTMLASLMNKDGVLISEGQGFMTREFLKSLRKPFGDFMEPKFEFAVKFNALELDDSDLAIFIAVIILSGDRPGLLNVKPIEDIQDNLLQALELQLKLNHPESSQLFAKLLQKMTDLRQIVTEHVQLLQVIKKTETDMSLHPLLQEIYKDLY
# Assay Overview: bio-layer interferometry (Octet K2, NTA biosensor, immobilized His-tagged PPARγ)
# Type: binding
pKd: −log10 of the molar value.
Quantity Measured: pKd

> print(dat)
                                   molecule  measured.number
1  COc1cc(O[C@@H]2O[C@H](CO)[C@@H](O)[C@H](O)[C@H]2O)c(-c2oc3cc(OC)c(OC)c(O)c3c(=O)c2OC)cc1O [CA1, Chrysosplenoside I]             4.12
